target: UniProtKB P56817
pKi: −log10 of the molar value.
metric: pKi

I: CC(C)C[C@H](NC(=O)[C@H](CS(C)(=O)=O)NC(=O)[C@@H](NC(=O)OC(C)(C)C)C(C)C)[C@@H](O)C[C@@H](C)C(=O)N[C@H](C(=O)NCc1ccccc1)C(C)C
II: CSCC[C@H](NC(=O)[C@@H](NC(=O)OC(C)(C)C)C(C)C)C(=O)N[C@@H](CC(C)C)[C@@H](O)C[C@@H](C)C(=O)N[C@H](C(=O)NCc1ccccc1)C(C)C
In: For the pair I and II , which member has the lower pKi number? # answer = label of selected item
Out: II

* * *

molecular target: Beta-secretase 1 (Homo sapiens, UniProt P56817)
Sequence (P56817 whole entry): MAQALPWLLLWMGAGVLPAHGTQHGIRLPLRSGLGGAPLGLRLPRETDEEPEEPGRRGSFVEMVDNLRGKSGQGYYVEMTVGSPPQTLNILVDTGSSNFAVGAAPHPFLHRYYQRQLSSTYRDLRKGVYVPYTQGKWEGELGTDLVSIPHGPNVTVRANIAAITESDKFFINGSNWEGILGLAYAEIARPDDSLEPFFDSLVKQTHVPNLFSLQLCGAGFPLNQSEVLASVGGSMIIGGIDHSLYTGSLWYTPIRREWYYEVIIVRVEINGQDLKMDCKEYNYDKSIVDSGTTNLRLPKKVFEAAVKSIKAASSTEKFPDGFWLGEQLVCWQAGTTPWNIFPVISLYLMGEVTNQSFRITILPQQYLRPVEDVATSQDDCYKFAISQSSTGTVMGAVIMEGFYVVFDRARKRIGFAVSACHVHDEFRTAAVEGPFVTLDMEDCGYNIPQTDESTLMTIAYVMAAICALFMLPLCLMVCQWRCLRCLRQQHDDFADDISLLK
metric: IC50 (nM)

// solved cases for IC50 follow
CC(=O)c1ccccc1-c1cc(C(=O)N[C@@H](Cc2ccccc2)[C@H](O)CNC2CC2)cc(C(=O)N[C@H](C)c2ccccc2)c1 | 317
C=CCNC[C@@H](O)[C@H](Cc1ccccc1)NC(=O)c1cc(C(=O)N[C@H](C)c2ccccc2)cc(-c2ccccc2C(C)=O)c1 | 223

A: CC(=O)c1ccccc1-c1cc(C(=O)N[C@@H](Cc2ccccc2)[C@H](O)CNc2ccccc2)cc(C(=O)N[C@H](C)c2ccccc2)c1
B: CC(=O)c1ccccc1-c1cc(C(=O)N[C@@H](Cc2ccccc2)[C@H](O)CNC(C)C)cc(C(=O)N[C@H](C)c2ccccc2)c1
In: Recorded IC50 values differ for A and B ; which one is higher? Lab log: write the label of the selected item as the result.
Out: B
(B: 674 nM, A: 110 nM)

Origin of values: ChEMBL document CHEMBL1140597
